# SUBJECT OF TEST: T1, human α-CGRP 1-37 (WT) (human, C-terminal amide; N-terminal biotin when captured on the SA chip; 125I-labelled in the radioligand assay)
# T1 construct: also called α-human
# T1 peptide: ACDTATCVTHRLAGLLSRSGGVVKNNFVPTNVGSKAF
# TEST PROTOCOL: Biacore, 37°C, Fab over CGRP on SA chip
MEASUREMENT NAME: koff (s⁻¹)
Give the value in s⁻¹ but do not write s⁻¹ after it.

Here are 2 binders together with their reported answers.
Q: So what does the record say about koff for G1 variant M78 Fab (Fab, V domains shown, Fab; constant domains as m1) VH: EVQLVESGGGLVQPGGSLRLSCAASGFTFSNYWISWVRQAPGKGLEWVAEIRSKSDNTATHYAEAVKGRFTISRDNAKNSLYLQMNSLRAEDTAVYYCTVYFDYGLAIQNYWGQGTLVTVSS VL: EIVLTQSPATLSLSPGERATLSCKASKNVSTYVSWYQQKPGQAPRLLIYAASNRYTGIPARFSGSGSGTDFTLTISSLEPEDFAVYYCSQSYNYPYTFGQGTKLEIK ?
Result: 0.00131

Q: So what's the measured koff for this one? G1 variant M17 Fab (Fab, V domains shown, Fab; constant domains as m1) VH: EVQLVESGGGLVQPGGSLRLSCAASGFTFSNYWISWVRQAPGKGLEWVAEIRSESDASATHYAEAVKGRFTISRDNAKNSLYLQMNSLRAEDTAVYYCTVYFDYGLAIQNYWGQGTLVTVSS VL: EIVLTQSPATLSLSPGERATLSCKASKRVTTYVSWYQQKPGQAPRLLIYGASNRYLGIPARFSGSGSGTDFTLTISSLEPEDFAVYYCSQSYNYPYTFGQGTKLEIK
Result: 0.000185

Further cases:
Q: May I ask what koff has been recorded for G1 variant M29 Fab (Fab, V domains shown, Fab; constant domains as m1) VH: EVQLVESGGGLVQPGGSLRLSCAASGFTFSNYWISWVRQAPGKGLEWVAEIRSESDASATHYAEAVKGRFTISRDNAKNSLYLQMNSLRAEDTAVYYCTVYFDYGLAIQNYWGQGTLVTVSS VL: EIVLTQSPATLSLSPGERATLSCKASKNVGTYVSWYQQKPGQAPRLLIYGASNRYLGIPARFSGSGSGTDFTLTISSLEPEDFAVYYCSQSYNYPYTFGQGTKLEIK ?
Result: 0.00038
